Data credit: patent US10117916B2

# System Tested: HLA-A*02:01 (Homo sapiens, UniProt P04439, D140Y/D185E/D98H/E176V/E277Q/G131W/G231S/I119V/I121R/I166T/I218V/L300P/L318F/N151K/N90K/P208A/P217A/Q86G/Q94H/R138H/R169H/T345S)
# Assay Text: MHC binding assay: UV-ligand exchange with β2m ELISA (peptide exchange yield)
# Details: MHC class I binding score; binding to HLA-A*02:01 ranged by peptide exchange yield (UV-ligand exchange, β2m ELISA)
# Text: Candidate peptides for T cell based therapies according to the present invention were further tested for their MHC binding capacity (affinity). The individual peptide-MHC complexes were produced by UV-ligand exchange, where a UV-sensitive peptide is cleaved upon UV-irradiation, and exchanged with the peptide of interest as analyzed. Only peptide candidates that can effectively bind and stabilize the peptide-receptive MHC molecules prevent dissociation of the MHC complexes. […]
Measured Parameter: Peptide Exchange

Examples from the recorded data:
Substance | Measured Parameter | Observed Measurement
361 (ILQEFESKL; listed as Homo sapiens) [compound 361] | Peptide Exchange | ″+++″ (≥50 = +++)
382 (YLLPLLQRL; listed as Homo sapiens) [compound 382] | Peptide Exchange | ″++++″ (≥75% = ++++)
243 (ILPTLEKELFL; listed as Homo sapiens) [compound 243] | Peptide Exchange | ″+++″ (≥50 = +++)
72 (GLLDAGKMYV; listed as Homo sapiens) [compound 72] | Peptide Exchange | ″+++″ (≥50 = +++)
262 (SLWNAGTSV; listed as Homo sapiens) [compound 262] | Peptide Exchange | ″+++″ (≥50 = +++)
153 (SLLAELHVL; listed as Homo sapiens) [compound 153] | Peptide Exchange | ″+++″ (≥50 = +++)
45 (FLPELPADLEA; listed as Homo sapiens) [compound 45] | Peptide Exchange | ″+++″ (≥50 = +++)
284 (LLSAAEPVPA; listed as Homo sapiens) [compound 284] | Peptide Exchange | ″++″ (≥20% = ++)

Problem: Quick one: Peptide Exchange of 2 (ALHRPDVYL; listed as Homo sapiens) [compound 2] ?
Solution: ″+++″ (≥50 = +++)

Problem: Also 11 (ALFTFSPLTV; listed as Homo sapiens) [compound 11] , if possible.
Solution: ″+++″ (≥50 = +++)

Problem: Consider next the substance 278 (YLDDLLPKL; listed as Homo sapiens) [compound 278] in the same way.
Solution: ″+++″ (≥50 = +++)

Problem: Next record, please: 88 (ILDEIGADVQA; listed as Homo sapiens) [compound 88]
Solution: ″+++″ (≥50 = +++)

Problem: Another substance to look at: 203 (ALLSSQLAL; listed as Homo sapiens) [compound 203]
Solution: ″+++″ (≥50 = +++)

----------
# System Tested: HLA-A*02:01 (Homo sapiens, UniProt P04439, D140Y/D185E/D98H/E176V/E277Q/G131W/G231S/I119V/I121R/I166T/I218V/L300P/L318F/N151K/N90K/P208A/P217A/Q86G/Q94H/R138H/R169H/T345S)
# Assay Text: MHC binding assay: UV-ligand exchange with β2m ELISA (peptide exchange yield)
# Details: MHC class I binding score; binding to HLA-A*02:01 ranged by peptide exchange yield (UV-ligand exchange, β2m ELISA)
Measured Parameter: Peptide Exchange

Substance | Observed Measurement
44 (FLLSINDFL; listed as Homo sapiens) [compound 44] | ″+++″ (≥50 = +++)
225 (ILQERELLPV; listed as Homo sapiens) [compound 225] | ″+++″ (≥50 = +++)
151 (SLFDSAYGA; listed as Homo sapiens) [compound 151] | ″+++″ (≥50 = +++)

----------
# Test system: CD8+ T cells
# Assay Text: In vitro immunogenicity: T-cell priming with aAPCs loaded with peptide/MHC and anti-CD28, pMHC multimer readout
# Type: cell-based, human
# Details: HLA-A*02 restricted peptides; CD8+ T cells of healthy donors; three stimulation cycles
Measured Parameter: Wells positive [%]

Examples with their reported Wells positive [%] follow.
Substance | Observed Measurement
202 (YVDDVFLRV; listed as Homo sapiens) [compound 202] | ″++″ (20%-49% = ++)
154 (SLLAELHVLTV; listed as Homo sapiens) [compound 154] | ″+″ (<20% = +)
17 (ALTKTNLQL; listed as Homo sapiens) [compound 17] | ″+″ (<20% = +)
81 (WLVGQEFEL; listed as Homo sapiens) [compound 81] | ″+″ (<20% = +)
112 (KTLDVDATYEI; listed as Homo sapiens) [compound 112] | ″+″ (<20% = +)
197 (YLQEVPILTL; listed as Homo sapiens) [compound 197] | ″+″ (<20% = +)
114 (LIPEGPPQV; listed as Homo sapiens) [compound 114] | ″+″ (<20% = +)
56 (FVFEAPYTL; listed as Homo sapiens) [compound 56] | ″++″ (20%-49% = ++)

With those in mind, consider the next substance.
Problem: What Wells positive [%] value was documented for this substance, 320 (TIAPVTVAV; listed as Homo sapiens) [compound 320] ?
Solution: ″+″ (<20% = +)

----------
# System Tested: HLA-A*02:01 (Homo sapiens, UniProt P04439, D140Y/D185E/D98H/E176V/E277Q/G131W/G231S/I119V/I121R/I166T/I218V/L300P/L318F/N151K/N90K/P208A/P217A/Q86G/Q94H/R138H/R169H/T345S)
# Assay Text: MHC binding assay: UV-ligand exchange with β2m ELISA (peptide exchange yield)
# Details: MHC class I binding score; binding to HLA-A*02:01 ranged by peptide exchange yield (UV-ligand exchange, β2m ELISA)
# Source text: Candidate peptides for T cell based therapies according to the present invention were further tested for their MHC binding capacity (affinity). The individual peptide-MHC complexes were produced by UV-ligand exchange, where a UV-sensitive peptide is cleaved upon UV-irradiation, and exchanged with the peptide of interest as analyzed. Only peptide candidates that can effectively bind and stabilize the peptide-receptive MHC molecules prevent dissociation of the MHC complexes. […]
Measured Parameter: Peptide Exchange

Substance | Observed Measurement
70 (FVPDTPVGV; listed as Homo sapiens) [compound 70] | ″+++″ (≥50 = +++)
289 (ILEEQPMDMLL; listed as Homo sapiens) [compound 289] | ″+++″ (≥50 = +++)
39 (FLDALLTDV; listed as Homo sapiens) [compound 39] | ″+++″ (≥50 = +++)

----------
# System Tested: HLA-A*02:01 (Homo sapiens, UniProt P04439, D140Y/D185E/D98H/E176V/E277Q/G131W/G231S/I119V/I121R/I166T/I218V/L300P/L318F/N151K/N90K/P208A/P217A/Q86G/Q94H/R138H/R169H/T345S)
# Assay Text: MHC binding assay: UV-ligand exchange with β2m ELISA (peptide exchange yield)
# Details: MHC class I binding score; binding to HLA-A*02:01 ranged by peptide exchange yield (UV-ligand exchange, β2m ELISA)
Measured Parameter: Peptide Exchange

Sample records with Peptide Exchange:
Substance | Measured Parameter | Observed Measurement
1 (AIPPSFASIFL; listed as Homo sapiens) [compound 1] | Peptide Exchange | ″+++″ (≥50 = +++)
82 (GLQSGVDIGV; listed as Homo sapiens) [compound 82] | Peptide Exchange | ″+++″ (≥50 = +++)
308 (SLYDVSRMYV; listed as Homo sapiens) [compound 308] | Peptide Exchange | ″++++″ (≥75% = ++++)
5 (ALIFKIASA; listed as Homo sapiens) [compound 5] | Peptide Exchange | ″+++″ (≥50 = +++)
199 (YLVELSSLL; listed as Homo sapiens) [compound 199] | Peptide Exchange | ″++++″ (≥75% = ++++)
238 (GLVETELQL; listed as Homo sapiens) [compound 238] | Peptide Exchange | ″+++″ (≥50 = +++)
328 (VLLPQETAEIHL; listed as Homo sapiens) [compound 328] | Peptide Exchange | ″++++″ (≥75% = ++++)

We now examine a further substance.
Problem: Dear colleague, I am looking for the recorded Peptide Exchange of the following substance: 174 (VLAELPIIVV; listed as Homo sapiens) [compound 174]
Solution: ″+++″ (≥50 = +++)

----------
# System Tested: HLA-A*02:01 (Homo sapiens, UniProt P04439, D140Y/D185E/D98H/E176V/E277Q/G131W/G231S/I119V/I121R/I166T/I218V/L300P/L318F/N151K/N90K/P208A/P217A/Q86G/Q94H/R138H/R169H/T345S)
# Assay Text: MHC binding assay: UV-ligand exchange with β2m ELISA (peptide exchange yield)
# Details: MHC class I binding score; binding to HLA-A*02:01 ranged by peptide exchange yield (UV-ligand exchange, β2m ELISA)
Measured Parameter: Peptide Exchange

Worked cases, answers included:
Substance | Observed Measurement
91 (ILDLNTYNV; listed as Homo sapiens) [compound 91] | ″+++″ (≥50 = +++)
183 (VLMPTVYQQGV; listed as Homo sapiens) [compound 183] | ″+++″ (≥50 = +++)
320 (TIAPVTVAV; listed as Homo sapiens) [compound 320] | ″++++″ (≥75% = ++++)
31 (ELMHGVAGV; listed as Homo sapiens) [compound 31] | ″+++″ (≥50 = +++)

Problem: Dear colleague, I am looking for the recorded Peptide Exchange of the following substance: 209 (ILQAELPSL; listed as Homo sapiens) [compound 209]
Solution: ″+++″ (≥50 = +++)

Problem: Next record, please: 317 (NLLAHIWAL; listed as Homo sapiens) [compound 317]
Solution: ″+++″ (≥50 = +++)

Problem: Let us now turn to 202 (YVDDVFLRV; listed as Homo sapiens) [compound 202]
Solution: ″++++″ (≥75% = ++++)

Problem: Would you mind doing 285 (GVATAGCVNEV; listed as Homo sapiens) [compound 285] as well?
Solution: ″++++″ (≥75% = ++++)

Problem: What do you get for 246 (KLDETGVAL; listed as Homo sapiens) [compound 246] ?
Solution: ″++″ (≥20% = ++)

Problem: Input 81 (WLVGQEFEL; listed as Homo sapiens) [compound 81]
Solution: ″+++″ (≥50 = +++)

Problem: Now consider 377 (VVDGTCVAV; listed as Homo sapiens) [compound 377] .
Solution: ″+++″ (≥50 = +++)

Problem: Then this substance: 194 (YLDNVLAEL; listed as Homo sapiens) [compound 194]
Solution: ″++++″ (≥75% = ++++)

Problem: Same question, 22 (ALWDPVIEL; listed as Homo sapiens) [compound 22] this time
Solution: ″+++″ (≥50 = +++)

Problem: What do you have for 323 (SLDLFNCEV; listed as Homo sapiens) [compound 323] ?
Solution: ″++++″ (≥75% = ++++)

Problem: Proceed to 216 (WLAGDVPAA; listed as Homo sapiens) [compound 216]
Solution: ″+++″ (≥50 = +++)

Problem: Moving on to the next substance: 233 (GIIDINVRL; listed as Homo sapiens) [compound 233]
Solution: ″++″ (≥20% = ++)

Problem: Cool, now 231 (FLYIRQLAI; listed as Homo sapiens) [compound 231]
Solution: ″+++″ (≥50 = +++)

Problem: Could you do the same for 27 (AVLGLVWLL; listed as Homo sapiens) [compound 27] , please?
Solution: ″+++″ (≥50 = +++)

Problem: What about 274 (VLLEYHIAYL; listed as Homo sapiens) [compound 274] ?
Solution: ″+++″ (≥50 = +++)

Problem: Okay, and 254 (QLIPKLIFL; listed as Homo sapiens) [compound 254] ?
Solution: ″+++″ (≥50 = +++)
